# System: wheat (Triticum aestivum)
# protocol_details: Test A postemergence, wheat
# Assay type: in vivo
# run_parameters: Postemergence, 125 g ai/ha; 0 to 100 scale, 10 days
readout_label: Plant response rating, Wheat

{"query_smiles": "Cc1ccc2cc3ccc(F)cc3c(-c3c(OCOC(=O)C(C)(C)C)c(C)nn(C)c3=O)c2c1", "tested_target": "wheat (Triticum aestivum)", "meas_value": 0}
{"query_smiles": "COc1cc(OC)c2cc3ccc(F)cc3c(-c3c(OCOC(C)=O)c(C)nn(C)c3=O)c2c1", "tested_target": "wheat (Triticum aestivum)", "meas_value": 0}
{"query_smiles": "CC(=O)OCOc1c(C)nn(C)c(=O)c1-c1c2cc(F)ccc2cc2c(C)cc(C)cc12", "tested_target": "wheat (Triticum aestivum)", "meas_value": 0}
{"query_smiles": "Cc1cc(Cl)c2ccc(F)cc2c1-c1c(OCOC(=O)C(C)(C)C)c(C)nn(C)c1=O", "tested_target": "wheat (Triticum aestivum)", "meas_value": 60}
{"query_smiles": "CC(=O)OCOc1c(C)nn(C)c(=O)c1-c1c2ccccc2cc2ccccc12", "tested_target": "wheat (Triticum aestivum)", "meas_value": 0}
{"query_smiles": "CC(=O)OCOc1c(Cl)nn(C)c(=O)c1-c1c2cc(C)ccc2cc2ccc(C)cc12", "tested_target": "wheat (Triticum aestivum)", "meas_value": 0}
{"query_smiles": "CC(=O)OCOc1c(C)nn(C)c(=O)c1-c1c2ccccc2c(Br)c2ccccc12", "tested_target": "wheat (Triticum aestivum)", "meas_value": 40}
{"query_smiles": "CC(=O)OCOc1c(C)nn(C)c(=O)c1-c1c2cc(C)ccc2cc2c(F)cc(C)cc12", "tested_target": "wheat (Triticum aestivum)", "meas_value": 0}
{"query_smiles": "Cn1nc(Cl)c(OCOC(=O)C(C)(C)C)c(-c2c3ccccc3cc3ccccc23)c1=O", "tested_target": "wheat (Triticum aestivum)", "meas_value": 0}
{"query_smiles": "Cc1ccc2ccccc2c1-c1c(OCOC(=O)C(C)(C)C)c(Cl)nn(C)c1=O", "tested_target": "wheat (Triticum aestivum)", "meas_value": 50}

---

# Test system: foxtail, green (green foxtail, Setaria viridis)
# protocol_details: Test A preemergence, foxtail, green
# Assay type: in vivo
# run_parameters: 31 g ai/ha, 0 to 100 scale, 10 days
readout_label: Plant response rating, Foxtail, Green

{"compound": "CC(=O)OCOc1c(Cl)nn(C)c(=O)c1-c1c(C)sc2cccc(Cl)c12 [Compound 1]", "tested_target": "foxtail, green (green foxtail, Setaria viridis)", "readout_label": "Plant response rating, Foxtail, Green", "meas_value": 0}
{"compound": "Cc1cc(Cl)c2ccc(F)cc2c1-c1c(OCOC(=O)C(C)(C)C)c(C)nn(C)c1=O [Compound 30]", "tested_target": "foxtail, green (green foxtail, Setaria viridis)", "readout_label": "Plant response rating, Foxtail, Green", "meas_value": 20}
{"compound": "Cc1ccc2ccccc2c1-c1c(OCOC(=O)C(C)(C)C)c(Cl)nn(C)c1=O [Compound 7]", "tested_target": "foxtail, green (green foxtail, Setaria viridis)", "readout_label": "Plant response rating, Foxtail, Green", "meas_value": 60}
{"compound": "CC(=O)OCOc1c(Cl)nn(C)c(=O)c1-c1c(C)ccc2ccccc12 [Compound 5]", "tested_target": "foxtail, green (green foxtail, Setaria viridis)", "readout_label": "Plant response rating, Foxtail, Green", "meas_value": 50}
{"compound": "Cc1ccc2ccccc2c1-c1c(OCOC(=O)C(C)C)c(Cl)nn(C)c1=O [Compound 6]", "tested_target": "foxtail, green (green foxtail, Setaria viridis)", "readout_label": "Plant response rating, Foxtail, Green", "meas_value": 0}
{"compound": "Cc1ccc2ccc(F)cc2c1-c1c(OCOC(=O)C(C)(C)C)c(Cl)nn(C)c1=O [Compound 4]", "tested_target": "foxtail, green (green foxtail, Setaria viridis)", "readout_label": "Plant response rating, Foxtail, Green", "meas_value": 70}

Where do the numbers come from? From patent US12692238B2.
